Measured p-STAT6 inhibition (%), IL-4 induced, Ramos B cells, flow cytometry by item
Test target: T1, human γc on cells (KHYG-1, Ramos, HPB-ALL, Jurkat, PBMC) (human) (UniProt P31785)
T1 sequence (looked up): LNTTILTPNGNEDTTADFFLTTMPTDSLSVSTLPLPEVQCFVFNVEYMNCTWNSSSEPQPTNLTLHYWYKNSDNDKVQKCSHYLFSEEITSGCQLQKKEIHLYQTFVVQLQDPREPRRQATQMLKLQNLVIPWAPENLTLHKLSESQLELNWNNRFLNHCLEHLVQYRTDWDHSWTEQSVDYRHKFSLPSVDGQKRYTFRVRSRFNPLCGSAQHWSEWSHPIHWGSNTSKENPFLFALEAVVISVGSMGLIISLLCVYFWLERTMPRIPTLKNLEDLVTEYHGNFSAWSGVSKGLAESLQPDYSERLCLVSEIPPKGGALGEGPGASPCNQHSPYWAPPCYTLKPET
Test details: cell-based or functional assay
Readout type: p-STAT6 inhibition (%), IL-4 induced, Ramos B cells, flow cytometry

[[record]]
binder = "SM-05F anti-γc ScFv (scFv, part only; not given: linker and E-tag, not shown: small tags and cut ends) scFv (part 1 of 2), part: EVQLQQSGPELVKPGASVKIFCKTSGYTFTEYTMHWVKQSHGESLEWIGGIDPNTGGVTYNQKFKGKATLTADKSSSTAYMELRSLTSEDSAVYYCARRRRYYGYALDYWGQGTSVTVSS scFv (part 2 of 2), part: DVLMTQTPLSLPVSLGDQASISCRSSQSIVHNNGNTYLEWYLQKPGQSPKLLIYKVSNRFFGVPDRFSGSGSGTYFTLKISRVEAEDLGVYYCFQGSHVPWTFGGGTKLEIKR"
measurement = 46

[[record]]
binder = "SM-05A anti-γc ScFv (scFv, part only; not given: linker and E-tag, not shown: small tags and cut ends) scFv (part 1 of 2), part: EVQLQQSGPELVKPGASVKISCKTSGYTFTEYTMHWVKQSHGKSLEWIGGIDPYNGGATYNQRFKGKATLTVDKSSSTAYMEFRSLTSEDSAVYYCARRRLYYGNALDYWGQGTSVTVSS scFv (part 2 of 2), part: DVLMTQTPLSLPVSLGDQASISCRSSQSLVHSNGNTYLHWYLQRPGQSPKLLIYKVSSRFSGVPDRFSGSGSGTDFTLKISRVEAEDLGVYFCSQTTHVPFTFGSGTKLEIKR"
measurement = 86.1

[[record]]
binder = "SM-05J anti-γc ScFv (scFv, part only; not given: linker and E-tag, not shown: small tags and cut ends) scFv (part 1 of 2), part: EVQLQQSGPELVKPGASVKISCKTSGYTFTEYTMHWVKQSHGKSLEWIGGIDPYNGGITYNQRFKGKATLTVDKSSSTAYMELRSLTSEDSAVYYCARRRLYYGYALDYWGQGTSVTVSS scFv (part 2 of 2), part: DVVMTQTPLSLPVSLGDQASISCRSSQSIVHSNGNTYLEWYLQKPGQSPKLLIYKVSNRFSGVPDRFSGSGSGTDFTLKISRVEAEDLGVYYCFQGSHVPFTFGSGTKLEIKR"
measurement = 82.2

[[record]]
binder = "SM-05C anti-γc ScFv (scFv, part only; not given: linker and E-tag, not shown: small tags and cut ends) scFv (part 1 of 2), part: QVQLQQSGPELVKPGASVKIFCKTSGYTFTEYTMHWVKQSHGESLEWIGGIDPNTGGATYNQKFKGKATLTADKSSSTAYMELRSLTSEDSAVYYCARRRRYYGYAMDYWGQGTSVTVSS scFv (part 2 of 2), part: DVVMTQTPLSLPVSLGDQASISCRSSQSLVHSNGNTYLHWYLQKPGQSPKLLIYKVSNRFSGVPDRFSGSGSGTDFTLKISRVEAEDLGIYYCFQDSHVPFTFGSGTKLEIKR"
measurement = 46

[[record]]
binder = "SM-05B anti-γc ScFv (scFv, part only; not given: linker and E-tag, not shown: small tags and cut ends) scFv (part 1 of 2), part: QVQLQQSGPELVKPGASVKIFCKTSGYTFTEYTMHWVKQSHGESLEWIGGIDPNTGGATYNQKFKGKATLTADKSSSTAYMELRSLTSEDSAVYYCARRRRYYGYALDYWGQGTSVTVSS scFv (part 2 of 2), part: DVLMTQTPLSLPVSLGDQASISCRSSQSIVHSNGNTYLEWYLQKPGQSPKLLIYKVSNRFSGVPDRFSGSGSGTDFTLKISRVEAEDLGVYFCSQSTHVPWTFGGGTKLEIKR"
measurement = 77

